This collection of values is drawn from patent US5770573A.

# experimental-system: VLA-4 (Homo sapiens, UniProt P05556+P13612)
# Sequence (P13612 34-1032): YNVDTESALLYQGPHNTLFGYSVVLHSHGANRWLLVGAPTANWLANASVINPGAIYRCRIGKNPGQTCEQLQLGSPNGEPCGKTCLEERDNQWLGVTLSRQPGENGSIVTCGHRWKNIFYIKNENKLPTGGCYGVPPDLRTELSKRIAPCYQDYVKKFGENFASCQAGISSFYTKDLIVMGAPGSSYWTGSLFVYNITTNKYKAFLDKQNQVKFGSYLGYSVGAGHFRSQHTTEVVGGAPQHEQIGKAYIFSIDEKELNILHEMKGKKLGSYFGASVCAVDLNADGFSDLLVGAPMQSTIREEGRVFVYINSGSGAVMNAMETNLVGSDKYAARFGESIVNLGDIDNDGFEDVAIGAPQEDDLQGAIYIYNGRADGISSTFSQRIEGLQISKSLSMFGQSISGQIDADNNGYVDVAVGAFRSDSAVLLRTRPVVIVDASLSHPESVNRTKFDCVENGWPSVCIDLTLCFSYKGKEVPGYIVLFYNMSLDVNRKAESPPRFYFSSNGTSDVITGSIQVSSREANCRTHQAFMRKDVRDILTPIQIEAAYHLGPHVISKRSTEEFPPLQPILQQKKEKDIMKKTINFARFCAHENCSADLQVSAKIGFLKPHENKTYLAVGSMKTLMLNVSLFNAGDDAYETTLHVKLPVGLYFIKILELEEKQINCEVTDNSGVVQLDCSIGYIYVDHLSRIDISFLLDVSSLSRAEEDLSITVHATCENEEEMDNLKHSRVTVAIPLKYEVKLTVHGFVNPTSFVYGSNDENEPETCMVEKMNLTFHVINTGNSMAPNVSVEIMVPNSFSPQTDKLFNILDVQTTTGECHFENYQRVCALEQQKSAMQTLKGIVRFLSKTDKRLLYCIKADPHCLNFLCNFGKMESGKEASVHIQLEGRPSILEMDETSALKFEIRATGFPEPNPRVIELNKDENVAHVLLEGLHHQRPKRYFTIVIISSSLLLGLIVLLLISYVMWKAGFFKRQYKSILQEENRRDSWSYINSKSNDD
# Sequence (P05556 21-798): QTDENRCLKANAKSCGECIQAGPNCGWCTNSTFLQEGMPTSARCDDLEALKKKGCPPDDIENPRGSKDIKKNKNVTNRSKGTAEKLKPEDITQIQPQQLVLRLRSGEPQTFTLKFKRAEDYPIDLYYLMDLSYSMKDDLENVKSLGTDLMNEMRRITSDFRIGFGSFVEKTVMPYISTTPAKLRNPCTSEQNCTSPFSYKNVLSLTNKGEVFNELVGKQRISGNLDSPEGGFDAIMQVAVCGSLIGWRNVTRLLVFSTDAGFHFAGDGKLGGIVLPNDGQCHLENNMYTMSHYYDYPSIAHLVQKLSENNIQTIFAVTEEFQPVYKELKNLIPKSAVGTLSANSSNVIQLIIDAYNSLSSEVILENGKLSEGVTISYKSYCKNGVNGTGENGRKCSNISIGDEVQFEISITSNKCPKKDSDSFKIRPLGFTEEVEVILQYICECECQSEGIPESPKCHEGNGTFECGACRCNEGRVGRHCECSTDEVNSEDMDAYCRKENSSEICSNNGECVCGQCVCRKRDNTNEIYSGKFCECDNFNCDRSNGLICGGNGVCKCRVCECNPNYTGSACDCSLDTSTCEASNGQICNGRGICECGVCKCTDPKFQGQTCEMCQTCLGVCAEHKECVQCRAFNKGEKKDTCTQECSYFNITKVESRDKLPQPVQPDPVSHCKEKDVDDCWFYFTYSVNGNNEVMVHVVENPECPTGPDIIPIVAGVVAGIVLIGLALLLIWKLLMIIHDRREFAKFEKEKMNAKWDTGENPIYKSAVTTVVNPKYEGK
# experiment: In vitro binding inhibition of 51Cr-labeled Jurkat cells to solid phase-bound CS-1 compound (SEQ ID NO:1)
# Format: cell-based
# Parameters: inflammatory cells that contain the VLA-4 receptor [Jurkat cells; host or cells: Jurkat (human T lymphoblastic line)
# experimental-parameters: binding inhibition potency relative to standard compound of SEQ ID NO:3 = 1 (normalized IC50); about one-tenth or less assigned zero
# Method: Binding inhibition is measured here as a concentration of compound that inhibits one-half the binding between a standard number of Jurkat cells and a standard amount of CS-1 compound bound to the surface of a microtiter plate well. Those concentrations are conveniently expressed as IC50 values, smaller numbers indicating a lower concentration required to inhibit 50 percent binding and therefore greater potency. Further specifics of this assay are provided hereinafter. […]
Square brackets hold non-standard residues; d marks the D form. Peptide text beside a SMILES is read from it. * marks the point of attachment. PhAc = O=C(Cc1ccccc1)*; Sar = CNCC(=O)O
endpoint-label: Relative Potency
Give the figure by itself; no unit, no explanation.

Solved cases below.
[[record]]
compound = "CC(C)C[C@H](NC(=O)Cc1ccccc1)C(=O)N[C@@H](CC(=O)O)C(=O)N[C@@H](Cc1ccccc1)C(=O)N(C)CC(N)=O [1190.04] (PhAc-LDF[Sar]-NH2)"
reported_measurement = 196

[[record]]
compound = "CC(C)C[C@H](NC(=O)Cc1ccccc1)C(=O)N[C@@H](CC(=O)O)C(=O)N[C@@H](Cc1ccccc1)C(=O)N1CCN(CC(=O)O)CC1"
reported_measurement = 2600

[[record]]
compound = "CC(C)C[C@H](NC(=O)Cc1ccccc1)C(=O)N[C@@H](CC(=O)O)C(=O)N[C@@H](CO)C(=O)N1CCC[C@@H]1C(N)=O [1042.23] (PhAc-LDS[dP]-NH2)"
reported_measurement = 33.2


Now turn to the next compound.
input: Report Relative Potency for CC(C)C[C@H](NC(=O)Cc1ccccc1)C(=O)N[C@@H](CS)C(=O)N[C@@H](Cc1ccccc1)C(=O)N1CCC[C@@H]1C(N)=O [896.59] (PhAc-LCF[dP]-NH2) please.
output: 0

----------
# experimental-system: VLA-4 (Homo sapiens, UniProt P05556+P13612)
# experiment: In vitro binding inhibition of 51Cr-labeled Jurkat cells to solid phase-bound CS-1 compound (SEQ ID NO:1)
# Assay type: cell-based
# Design: inflammatory cells that contain the VLA-4 receptor [Jurkat cells; host or cells: Jurkat (human T lymphoblastic line)
Square brackets hold non-standard residues; d marks the D form. Peptide text beside a SMILES is read from it. Cha = N[C@@H](CC1CCCCC1)C(=O)O; Nle = CCCC[C@H](N)C(=O)O; Nva = CCC[C@H](N)C(=O)O
Entries and their Relative Potency values follow.

Solved cases below.
[[record]]
compound = "CC(=O)N[C@@H](CO)C(=O)N[C@@H](Cc1ccccc1)C(=O)N[C@@H](CC(=O)O)C(=O)N[C@@H](Cc1ccccc1)C(=O)N[C@@H](CO)C(N)=O [951.46] (Ac-SFDFS-NH2)"
experimental_system = "VLA-4 (Homo sapiens, UniProt P05556+P13612)"
reported_measurement = ".22"

[[record]]
compound = "CC[C@H](C)[C@H](N)C(=O)N[C@@H](CC1CCCCC1)C(=O)N[C@@H](CC(=O)O)C(=O)N[C@H](C(=O)N1CCC[C@H]1C(N)=O)C(C)C [926.08] (H-I[Cha]DVP-NH2)"
experimental_system = "VLA-4 (Homo sapiens, UniProt P05556+P13612)"
reported_measurement = ".47"

[[record]]
compound = "CC(C)CN(CC(=O)Nc1ccccc1)C(=O)CN(CC(=O)O)C(=O)CNC(=O)C1CCCC1"
experimental_system = "VLA-4 (Homo sapiens, UniProt P05556+P13612)"
reported_measurement = ".42"

[[record]]
compound = "CCCC[C@H](NC(=O)[C@H](CC(=O)O)NC(=O)[C@H](CC(C)C)NC(=O)[C@@H](N)[C@@H](C)CC)C(=O)N1CCC[C@H]1C(N)=O [926.15] (H-ILD[Nle]P-NH2)"
experimental_system = "VLA-4 (Homo sapiens, UniProt P05556+P13612)"
reported_measurement = ".08"

[[record]]
compound = "CC[C@H](C)[C@H](N)C(=O)N[C@@H](CC(C)C)C(=O)N[C@@H](CC(=O)O)C(=O)N[C@@H](CC1CCCCC1)C(=O)N1CCC[C@H]1C(N)=O [926.14] (H-ILD[Cha]P-NH2)"
experimental_system = "VLA-4 (Homo sapiens, UniProt P05556+P13612)"
reported_measurement = ".13"


input: Report Relative Potency for CCC[C@H](NC(=O)[C@@H](N)[C@@H](C)CC)C(=O)N[C@@H](CC(=O)O)C(=O)N[C@H](C(=O)N1CCC[C@H]1C(N)=O)C(C)C [926.10] (H-I[Nva]DVP-NH2) please.
output: .13

input: Could you do the same for CC(C)CC(CCCc1ccccc1)C(=O)N[C@@H](CC(=O)O)C(=O)N[C@@H](Cc1ccccc1)C(=O)N1CCC[C@@H]1C(N)=O (stereo partly shown) , please?
output: .25

----------
Entries and their Relative Potency values follow.
# experimental-system: VLA-4 (Homo sapiens, UniProt P05556+P13612)
# experiment: In vitro binding inhibition of 51Cr-labeled Jurkat cells to solid phase-bound CS-1 compound (SEQ ID NO:1)
# Format: cell-based
# Parameters: inflammatory cells that contain the VLA-4 receptor [Jurkat cells; host or cells: Jurkat (human T lymphoblastic line)
# experimental-parameters: binding inhibition potency relative to standard compound of SEQ ID NO:3 = 1 (normalized IC50); about one-tenth or less assigned zero
Give the figure by itself; no unit, no explanation.

[[record]]
smiles_repr = "CC(C)C[C@H](NC(=O)Cc1ccccc1)C(=O)N[C@@H](CC(=O)O)C(=O)N[C@H]1Cc2ccccc2[C@H]2CCCCN2C1=O"
reported_measurement = 50.1

[[record]]
smiles_repr = "CC(C)C[C@H](NC(=O)Cc1ccccc1)C(=O)N[C@@H](CC(=O)O)C(=O)N[C@@H](Cc1ccccc1)C(=O)N1CCC(CC(=O)O)CC1"
reported_measurement = 591


Now turn to the next compound.
input: Report Relative Potency for CC(C)C[C@@H](CN[C@@H](CC(=O)O)C(=O)N[C@@H](Cc1ccccc1)C(=O)N1CCCCC1)NC(=O)Cc1ccccc1 please.
output: 0

----------
Entries and their Relative Potency values follow.
# experimental-system: VLA-4 (Homo sapiens, UniProt P05556+P13612)
# experiment: In vitro binding inhibition of 51Cr-labeled Jurkat cells to solid phase-bound CS-1 compound (SEQ ID NO:1)
# Format: cell-based
# Set-up: inflammatory cells that contain the VLA-4 receptor [Jurkat cells; host or cells: Jurkat (human T lymphoblastic line)
# experimental-parameters: binding inhibition potency relative to standard compound of SEQ ID NO:3 = 1 (normalized IC50); about one-tenth or less assigned zero
Peptide text beside a SMILES is read from it. * marks the point of attachment. PhAc = O=C(Cc1ccccc1)*

[[record]]
molecule = "O=C(O)CC(C(=O)N[C@@H](Cc1ccccc1)C(=O)N1CCCCC1)N1CC[C@H](NC(=O)Cc2ccccc2)C1=O (stereo partly shown) [1057.01]"
endpoint_label = "Relative Potency"
reported_measurement = ".88"

[[record]]
molecule = "CC(C)C[C@H](NC(=O)Cc1ccccc1)C(=O)N[C@@H](CC(=O)O)C(=O)N1C(=O)N(Cc2ccccc2)C(=O)[C@H]1Cc1ccccc1 [1047.07]"
endpoint_label = "Relative Potency"
reported_measurement = ".38"

[[record]]
molecule = "CC(C)C[C@H](NC(=O)Cc1ccccc1)C(=O)N[C@@H](CC(=O)O)C(=O)N[C@@H](Cc1ccccc1)C(N)=O [997.12] (PhAc-Leu-Asp-Phe-NH2)"
endpoint_label = "Relative Potency"
reported_measurement = ".45"


Now turn to the next molecule.
input: Report Relative Potency for CC(C)CN(CC(=O)Nc1ccccc1)C(=O)CN(CC(=O)O)C(=O)CN(Cc1ccccc1)C(=O)C1CCCC1 [1032.02] please.
output: .63

----------
# experimental-system: VLA-4 (Homo sapiens, UniProt P05556+P13612)
# experiment: In vitro binding inhibition of 51Cr-labeled Jurkat cells to solid phase-bound CS-1 compound (SEQ ID NO:1)
# Format: cell-based
# Set-up: inflammatory cells that contain the VLA-4 receptor [Jurkat cells; host or cells: Jurkat (human T lymphoblastic line)
endpoint-label: Relative Potency
Give the figure by itself; no unit, no explanation.

Solved cases below.
[[record]]
compound = "CC(C)C[C@H](NC(=O)C12CC3CC(CC(C3)C1)C2)C(=O)N[C@@H](CC(=O)O)C(=O)N[C@H](C(=O)N1CCC[C@@H]1C(N)=O)C(C)C"
endpoint_label = "Relative Potency"
reported_measurement = 1.38

[[record]]
compound = "NC(=O)[C@H]1CCCN1C(=O)[C@H](Cc1ccccc1)NC(=O)[C@H](CC(=O)O)NC(=O)c1cc2cc(O)ccc2cc1O"
endpoint_label = "Relative Potency"
reported_measurement = 0

[[record]]
compound = "CC(C)CC(C(=O)NCc1ccccc1)C(=O)N[C@@H](CC(=O)O)C(=O)N[C@@H](Cc1ccccc1)C(=O)N1CCCCC1 (some centres unmarked)"
endpoint_label = "Relative Potency"
reported_measurement = 0


input: Report Relative Potency for CC(C)C[C@H](NC(=O)c1ccncc1)C(=O)N[C@@H](CC(=O)O)C(=O)N[C@@H](Cc1ccc(O)cc1)C(=O)N1CCCCC1 please.
output: 23.8
